src = patent US20130131018A1

Test system: K562 cell line
Experiment: MTT assay: cytotoxicity against the K562 cell line
Type: cell-based
Conditions: Homo sapiens, K562 cells, 72 h, growth inhibition
pIC50: −log10 of the molar value. Counter-ions that a name gives are not always drawn.
# if value of pIC50 reaches 8, tag label 1; if it stays below, tag label 0

Solved cases (3 shown):
| COMPOUND | ASSIGNED_CLASS |
| --- | --- |
| CCOc1ccc2c(Cc3cc(OC)c(OCC)c(OC)c3)cncc2c1O [Compound 14, hydrochloride] | label 0 |
| COc1cc(Cc2cncc3c(OC)c(OC)ccc23)cc(OC)c1OC [Compound 10, hydrochloride] | label 0 |
| CCOc1ccc2c(Cc3cc(OC)c(NCc4ccccc4)c(OC)c3)cncc2c1O [Compound 51, hydrochloride] | label 0 |

In plain terms: is recorded pIC50 at least 8 for CCOc1ccc2c(Cc3cc(OC)c(OC)c(OC)c3)cncc2c1O [Compound 1, hydrochloride] ?
label 0

Say whether CCOc1c(OC)cc(Cc2cncc3c(OC)c(OC)ccc23)cc1OC [Compound 9, hydrochloride] shows pIC50 of 8 or more.
label 0
